- study_system: AMP-activated protein kinase, AMPK (Homo sapiens) (UniProt P54646+O43741+P54619+Q9UGJ0+Q9Y478+Q13131+Q9UGI9)
- assay_details: AMP-dependent Kinase enzyme assay. An in vitro enzyme assay that detects ADP turnover that is directly proportional to AMPK activity. This uses naive AMPK that is activated during the assay with MK-8722
- Assay type: functional
- Parameters: scale not given: direction of the effect not stated beside the values
- measurement_context: 30 µM
property: Percent Effect
Please answer in the form of a number followed by its unit of measurement.

Check out these entries, answers already filled in.
| molecule | Percent Effect |
| --- | --- |
| Fc1ccc(CN2CCCC2Cn2cccn2)c2ncccc12 (centres undefined) | -9.76% |
| Cc1cccc(C)c1OCCC(=O)N1CCC(c2nncn2C)CC1 | 3.3% |

q: What does the record list as Percent Effect for CC1CCCN(Cc2coc(-c3cccc(F)c3)n2)C1 (centres undefined) ?
a: 8.2%
